# Assay overview: Approximate solubility in different solvents at approximate 23° C.
# Format: physicochemical
# Applied conditions: organic solvent or mixture, thermodynamic from solid, Toluene
Value type: solubility

Report solubility for CC(C)CN(C[C@@H](O)[C@H](Cc1ccccc1)NC(=O)O[C@H]1CO[C@H]2OCC[C@H]21)S(=O)(=O)c1ccc(N)cc1 [Form A] please.
< 3500 µg/mL

###

# Assay overview: Approximate solubility in different solvents at approximate 23° C.
# Assay type: physicochemical
# Applied conditions: organic solvent or mixture, thermodynamic from solid, Methanol
Value type: solubility

Report solubility for CC(C)CN(C[C@@H](O)[C@H](Cc1ccccc1)NC(=O)O[C@H]1CO[C@H]2OCC[C@H]21)S(=O)(=O)c1ccc(N)cc1 [Form A] please.
< 3400 µg/mL
